Tested on: Veronica persica (VERPE)
Experiment: Herbicidal pre-emergence action (A), 1280 g/ha
Format: in vivo
Details: visual grading after ca. 3 weeks vs untreated controls
Text: ABUTH: Abutilon theophrasti AGSTE: Agrostis tenuis ALOMY: Alopecurus myosuroides AMARE Amaranthus retroflexus DIGSA: Digitaria sanguinalis ECHCG: Echinochloa crus-galli KCHSC: Kochia scoparia LOLRI: Lolium rigidum MATIN: Matricaria inodora POAAN: Poa annua POLCO: Polygonum convolvulus SETVI: Setaria viridis STEME: Stellaria media VERPE: Veronica persica VIOTR: Viola tricolor […]
Recorded Metric: herbicidal effect VERPE

Reported herbicidal effect VERPE for CCc1cc2scnc2nc1-c1ccc(F)cc1F was 100%

Field herbicidal effect VERPE (entry CCc1cc2sc(S)nc2nc1-c1ccccc1 ) reads 90%

The measured herbicidal effect VERPE associated with Cc1sccc1-c1nc2ncsc2cc1Br reads 90%

// field: herbicidal effect VERPE; key: Clc1cc2scnc2nc1-c1sccc1Cl ; value = 90%

Sample Clc1ccccc1-c1nc2ncsc2cc1Cl ; herbicidal effect VERPE observed: 90%

Lab note: CCc1cc2scnc2nc1C1=CCCCC1 gave herbicidal effect VERPE of 100%

----------
System: Echinochloa crus-galli (ECHCG)
Test: Herbicidal post-emergence action (D), 320 g/ha
Assay type: in vivo
Details: ca. 3 weeks
Text: ABUTH: Abutilon theophrasti AGSTE: Agrostis tenuis ALOMY: Alopecurus myosuroides AMARE Amaranthus retroflexus DIGSA: Digitaria sanguinalis ECHCG: Echinochloa crus-galli KCHSC: Kochia scoparia LOLRI: Lolium rigidum MATIN: Matricaria inodora POAAN: Poa annua POLCO: Polygonum convolvulus SETVI: Setaria viridis STEME: Stellaria media VERPE: Veronica persica VIOTR: Viola tricolor […]
Recorded Metric: herbicidal effect ECHCG (%)
Please reply with the bare figure in % and do not write the unit itself.

// herbicidal effect ECHCG value for Cc1cscc1-c1nc2ncsc2cc1C [Example I-193] : 80

In plain terms, Cc1cc2scnc2nc1-c1sccc1C [Example I-143] has a documented herbicidal effect ECHCG of 80

The reported value for Cc1cc2scnc2nc1-c1ccc(F)cc1F [Example I-122] in terms of herbicidal effect ECHCG is 80

Reported herbicidal effect ECHCG of Fc1ccccc1-c1nc2ncsc2cc1Br [Example I-012] : 80

Form: compound = Cc1cc2scnc2nc1-c1ccccc1F [Example I-002] ; herbicidal effect ECHCG = 100

Lookup result for Cc1ccsc1-c1nc2ncsc2cc1Cl [Example I-192] ; measured herbicidal effect ECHCG: 100

Query Fc1cccc(F)c1-c1nc2ncsc2cc1Cl [Example I-087] yields herbicidal effect ECHCG of 90

The compound listed as Cc1cc2scnc2nc1-c1sccc1Cl [Example I-137] has a reported herbicidal effect ECHCG of 90

Sure, the documented herbicidal effect ECHCG for CCc1cc2scnc2nc1-c1ccccc1F [Example I-023] is 90

Value of herbicidal effect ECHCG reported for the compound Cc1cc2scnc2nc1-c1ccccc1Cl [Example I-045] is 90

For reference, reported herbicidal effect ECHCG for Fc1ccccc1-c1nc2ncsc2cc1I [Example I-188] stands at 100

Looking up CCCc1cc2scnc2nc1-c1ccccc1F [Example I-185] , I found its herbicidal effect ECHCG recorded as 80

The compound Fc1ccccc1-c1nc2ncsc2cc1Cl [Example I-017] showed herbicidal effect ECHCG equal to 80

For this compound ( Fc1ccccc1-c1ccc2scnc2n1 [Example I-036] ), measured herbicidal effect ECHCG is 80

Looking up Clc1cc2scnc2nc1-c1sccc1Cl [Example I-189] , I found its herbicidal effect ECHCG recorded as 90

The reported herbicidal effect ECHCG of the compound Fc1ccc(-c2nc3ncsc3cc2Cl)c(F)c1 [Example I-127] was 90

Consider Cc1cc2scnc2nc1-c1ccccc1 [Example I-041] . Its measured herbicidal effect ECHCG is 100

What the record says about c1ccc(-c2ccc3scnc3n2)cc1 [Example I-010] : herbicidal effect ECHCG is 90

Per the record, CCc1cc2scnc2nc1-c1cccc(F)c1 [Example I-029] has herbicidal effect ECHCG of 90

The compound Cc1cc2scnc2nc1-c1ccsc1C [Example I-194] showed herbicidal effect ECHCG equal to 90

# herbicidal effect ECHCG (compound: Clc1cc2scnc2nc1-c1ccsc1 [Example I-191] ) is 90

Recorded herbicidal effect ECHCG (compound CC(C)c1cc2scnc2nc1-c1ccccc1F [Example I-184] ): 80

Reported herbicidal effect ECHCG of COc1ccccc1-c1nc2ncsc2cc1C [Example I-124] : 80

Given item CCc1cc2scnc2nc1-c1ccccc1 [Example I-051] , the value recorded as its herbicidal effect ECHCG is 90

Measured herbicidal effect ECHCG of Clc1cc2scnc2nc1-c1ccsc1Cl [Example I-190] : 90

herbicidal effect ECHCG recorded for this compound, Cc1sccc1-c1nc2ncsc2cc1Br [Example I-135] , is 80

----------
What herbicidal activity AMARE was measured for each of the following?
Test system: Amaranthus retroflexus (AMARE)
Assay: Herbicidal post-emergence action (B), 1280 g/ha
Type: in vivo
Conditions: rated visually after about 3 weeks vs untreated controls
From the text: ABUTH: Abutilon theophrasti AGSTE: Agrostis tenuis ALOMY: Alopecurus myosuroides AMARE Amaranthus retroflexus DIGSA: Digitaria sanguinalis ECHCG: Echinochloa crus-galli KCHSC: Kochia scoparia LOLRI: Lolium rigidum MATIN: Matricaria inodora POAAN: Poa annua POLCO: Polygonum convolvulus SETVI: Setaria viridis STEME: Stellaria media VERPE: Veronica persica VIOTR: Viola tricolor […]
// return numeric value only (unit: %, not printed)

The reported value for CCc1cc2scnc2nc1-c1ccccc1 [Example I-051] in terms of herbicidal activity AMARE is 100

herbicidal activity AMARE reported for this compound Cc1cc2scnc2nc1C12CCCCC1O2 (stereo not drawn) [Example I-151] : 100

herbicidal activity AMARE for Cc1cc2sc(S)nc2nc1-c1ccccc1Cl [Example I-169] is 90

The compound listed as CCc1cc2scnc2nc1-c1ccc(F)cc1F [Example I-030] shows herbicidal activity AMARE equal to 100

Lab book: herbicidal activity AMARE of Fc1cccc(-c2ccc3scnc3n2)c1 [Example I-118] noted as 90

Quick note, herbicidal activity AMARE for CCc1cc2sc(OC)nc2nc1-c1ccccc1C [Example I-094] landed at 100

// sample CCc1cc2scnc2nc1-c1ccccc1OC [Example I-111] , its herbicidal activity AMARE was 100

Item: Cc1cc2sc([S+](C)[O-])nc2nc1-c1ccccc1 (stereo not drawn) [Example I-092] | herbicidal activity AMARE: 100

# herbicidal activity AMARE (compound: CCc1cc2scnc2nc1-c1ccccc1F [Example I-023] ) is 100

Reported herbicidal activity AMARE ( Fc1ccc(-c2ccc3scnc3n2)cc1 [Example I-074] ) = 90

The compound listed as Cc1nc2nc(-c3ccccc3F)c(C)cc2s1 [Example I-001] has a reported herbicidal activity AMARE of 90

Kindly note the recorded herbicidal activity AMARE for Cc1cscc1-c1nc2ncsc2cc1Br [Example I-141] , which is 90

Briefly, herbicidal activity AMARE measured for Fc1ccccc1-c1ccc2scnc2n1 [Example I-036] : 100

Per the record, CCc1cc2sc([S+](C)[O-])nc2nc1-c1ccccc1 (stereo not drawn) [Example I-050] has herbicidal activity AMARE of 90

Consider COC(=O)c1nc2nc(-c3ccccc3F)c(Br)cc2s1 [Example I-054] . Its measured herbicidal activity AMARE is 100

Consider Cc1ccccc1-c1ccc2scnc2n1 [Example I-105] . Its measured herbicidal activity AMARE is 100

herbicidal activity AMARE measured on Fc1ccccc1-c1nc2ncsc2cc1I [Example I-188] = 100

What the record says about Cc1cccc(F)c1-c1nc2ncsc2cc1Cl [Example I-013] : herbicidal activity AMARE is 100

The compound Cc1ccccc1-c1nc2ncsc2cc1Cl [Example I-083] showed herbicidal activity AMARE equal to 100

herbicidal activity AMARE reading for Fc1ccccc1-c1nc2ncsc2cc1Cl [Example I-017] : 90

Entry CCc1cc2scnc2nc1C1=CCCCC1 [Example I-145] — recorded herbicidal activity AMARE = 100

The value of herbicidal activity AMARE measured for the compound CCc1cc2sc(S(C)(=O)=O)nc2nc1-c1ccccc1F [Example I-059] turned out to be 100

The recorded herbicidal activity AMARE for Cc1ccsc1-c1nc2ncsc2cc1Br [Example I-132] is 90

// herbicidal activity AMARE value for C=CCNC(=O)CNc1nc2nc(-c3ccccc3F)c(Br)cc2s1 [Example I-067] : 90

Recorded herbicidal activity AMARE (compound Cc1sccc1-c1ccc2scnc2n1 [Example I-133] ): 90

So for Cc1cscc1-c1ccc2scnc2n1 [Example I-134] , the logged herbicidal activity AMARE turned out to be 90

Note to self: herbicidal activity AMARE recorded for CSc1nc2nc(-c3ccccc3C)c(C)cc2s1 [Example I-043] was 100

Looking up c1ccc(-c2ccc3scnc3n2)cc1 [Example I-010] , I see its herbicidal activity AMARE listed as 100

Measured herbicidal activity AMARE, CCCc1cc2scnc2nc1-c1ccccc1F [Example I-185] : 100

Short answer for CCOC(=O)C(C#N)c1nc2nc(-c3ccccc3F)c(Br)cc2s1 (stereo not drawn) [Example I-086] : herbicidal activity AMARE was 100

Value source: patent US20230151025A1
